Tested on: A549/ATCC
Experiment notes: NCI 60 cell line screen (Non-Small Cell Lung Cancer)
Type: cell-based, human
Experimental setup: single dose 10 µM
Please respond with reported Growth percentage for every item in the list.
Value expressed in %; do not type the unit.

Recorded Growth percentage for COc1ccc(C(c2cc(OC)c(OC)c(OC)c2)N2CCN(Cc3ccccc3)CC2)cc1 (centres unmarked) [27d] , please?
78.38

Now the molecule COc1ccc(C(c2cc(OC)c(OC)c(OC)c2)N2CCCCC2)cc1 (centres unmarked) [26b]
49.14

Try COc1ccc(C(c2cc(OC)c(OC)c(OC)c2)n2cncn2)cc1O (centres unmarked) [19e] next.
18.6

Another molecule to look at: COc1ccc(C(c2cc(OC)c(OC)c(OC)c2)n2ccnc2)cc1O (centres unmarked) [21l]
12.80

Lookup COc1ccc(C(c2cc(OC)c(OC)c(OC)c2)N2CCCC2)cc1 (centres unmarked) [25g]
77.65
